Origin of the recorded values: PubChem BioAssay (NCI)

Overview of reported growth inhibition across a group of compounds:
- assay_summary: NCI Yeast Anticancer Drug Screen. Data for the mec2-1 strain (AID 157)
- measurement_conditions: S. cerevisiae mec2-1 strain, at 50.0 µM, hits give high values
About 79,000 compounds went through this panel and 15% of them were active in at least one assay; those are over-represented in the sample as a whole.
Give the value, in units of %, as a plain number.

Worked examples follow.
[[record]]
compound = "O=c1[nH]c2cc([N+](=O)[O-])ccc2nc1/C(=N/Nc1ccccc1)C(O)c1ccc(C(O)/C(=N\\Nc2ccccc2)c2cnc3cc([N+](=O)[O-])ccc3n2)cc1 (centres undefined)"
value_measured = -23.9

[[record]]
compound = "Cc1cc2oc3c(c2c(=O)[nH]1)C(=O)c1ccccc1C3=O"
value_measured = -1.3

[[record]]
compound = "O=C(O)c1n[nH]c2ccccc12"
value_measured = -14.1

[[record]]
compound = "O=C(O)c1ccccc1Oc1ccc([N+](=O)[O-])cc1[N+](=O)[O-]"
value_measured = 16.8

[[record]]
compound = "CC(=O)C(c1ccccc1)S(=O)(=O)c1ccc(C)cc1 (centres undefined)"
value_measured = -18.4

[[record]]
compound = "O=[N+]([O-])c1ccc(Sc2c3ccccc3nc3ccccc23)cn1"
value_measured = 27.4

[[record]]
compound = "CC(=O)Nc1cc2cc(NS(=O)(=O)c3cc(C(F)(F)F)cc(C(F)(F)F)c3)ccc2oc1=O"
value_measured = -10.2

[[record]]
compound = "Cc1ccc(N2C(=O)/C(=C3\\Sc4c(nc(C)n(C)c4=O)N3c3ccccc3)SC2=S)cc1"
value_measured = -31.4


Tell me the measured growth inhibition of CCOC(=O)c1ccc(-c2ccc(C(=O)OCC)cc2[N+](=O)[O-])c([N+](=O)[O-])c1 , please. 12.8

###

- assay_summary: NCI Yeast Anticancer Drug Screen. Data for the mec2-1 strain (AID 157)
- measurement_conditions: S. cerevisiae mec2-1 strain, at 50.0 µM, hits give high values
The panel holds about 79,000 compounds, 15% with a hit somewhere; the sample as a whole holds those more often. Calls of active or inactive are those of the source. Cut-off read from the data, not from the text of the source: active = growth inhibition above about 70%; inactive = the rest.
value_type: growth inhibition

[[record]]
compound = "CC(C)(C)CC(C)(C)c1ccc(OCCOc2ccc(C(=O)NCCNC(=O)c3ccc4ccccc4c3O)cc2N)cc1"
value_measured = "-5.25% (inactive)"


Alright, here's another compound for you.
What growth inhibition value was documented for this compound, S=C1SCN(c2ccc3c(c2)OCO3)CN1c1ccc2c(c1)OCO2 ? -33.9% (inactive)

###

- assay_summary: NCI Yeast Anticancer Drug Screen. Data for the cln2 rad14 strain (AID 165);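 note: 0% = growth equal to vehicle treated cultures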
- measurement_conditions: S. cerevisiae cln2 rad14 strain, at 50.0 µM, hits give high values
About 79,000 compounds went through this panel and 15% of them were active in at least one assay; those are over-represented in the sample as a whole.
value_type: growth inhibition (%)
Number only, in %; omit the unit.

The cases that follow already have their growth inhibition on record.
[[record]]
compound = "O=NN(Cc1ccccc1)c1ccc(OCc2ccccc2)c(NC(=O)CCC2OCCO2)c1"
value_type = "growth inhibition"
value_measured = 7.05

[[record]]
compound = "O=C1C=CC(=O)C1N=Nc1ccccc1"
value_type = "growth inhibition"
value_measured = 18.3


Would you kindly share the measured growth inhibition for COC1OC(CN)C(O)C(O)C1O (configuration not stated) ? 28.2

Same again, this time with CC(=O)N1C(Nc2nccs2)CCN1c1ccccc1 (configuration not stated) 3.1

// repeat for O=C(Nc1nc(C23CC4CC(CC(C4)C2)C3)cs1)c1c(O)c2ccccc2[nH]c1=O and report 8.95

Also need CCCN(CCC)S(=O)(=O)c1ccc(NC(=O)OC2CCCCC2)cc1 , thanks. 13.1

Next up: CN1C(=O)CCSC1=S -18.6

What would you report for C=C(c1ccccc1)c1cccc2ccccc12 ? 19.9

Entry to check: O=C(O)C(c1ccccc1)S(=O)(=O)c1ccccc1 (configuration not stated) -16.7

Please give the result for CSc1nc(NN)c([N+](=O)[O-])c(SC)n1 too. -2.65

Quick one: CCN(CCO)CC(O)Cn1cnc2c(N)ncnc21 (configuration not stated) (tested in a mixture with another compound) 31.4

And what about the compound O=C(O)c1nccc2c(O)cccc12 ? -19.6
